All values here come from patent US11161908.

Measured koff of individual entries
- MEASUREMENT_TARGET: T1, commercial, recombinant extracellular domain of human BAFF-R (human, UniProt Q96RJ3 1-78)
- T1 construct: extracellular domain
- MEASUREMENT_NOTES: Biacore analysis; antibody as loading sample, recombinant human BAFF-R ECD as sample
- Excerpt: The chimeric anti-BAFF-R antibody C90 was humanized with several variants. The humanization process took into consideration and analysis of the variable region and specifically the CDRs of the chimeric antibody. From there, three variants for each heavy and light chain was developed with varying degrees of human-likeness ranging from 1 the most human to 3 the most conservative to the chimeric. The variants were combined to produce 9 variants. […]

[
  {
    "BINDER": "humanized C90 variant HC1 + LC1 (antibody, V domains shown, also called Humanized HC1 + LC1; Hu90 HC-1 with Hu90 LC-1) VH: QVQLQESGPGLVKPSQTLSLTCTVSGDSITSGYWNWIRQHPGKGLEYIGYISYSGSTYYNPSLKSRVTISRDTSKNQFSLKLSSVTAADTAVYYCASPNYPFYAMDYWGQGTLVTVSS VL: EIVLTQSPATLSLSPGERATLSCRASESVDNYGISFLNWFQQKPGQAPRLLIYAASNRATGIPARFSGSGSGTDFTLTISSLEPEDFAVYYCQQSKEVPWTFGGGTKVEIKR",
    "UNIT_INFO": "s⁻¹",
    "koff": 0.0024
  },
  {
    "BINDER": "humanized C90 variant HC2 + LC1 (antibody, V domains shown, also called Humanized HC2 + LC1; Hu90 HC-2 with Hu90 LC-1) VH: EVQLQESGPGLVKPSQTLSLTCTVSGDSITSGYWNWIRQHPGKGLEYIGYISYSGSTYYNPSLKSRVTISRDTSKNQYSLKLSSVTAADTAVYYCASPNYPFYAMDYWGQGTLVTVSS VL: EIVLTQSPATLSLSPGERATLSCRASESVDNYGISFLNWFQQKPGQAPRLLIYAASNRATGIPARFSGSGSGTDFTLTISSLEPEDFAVYYCQQSKEVPWTFGGGTKVEIKR",
    "UNIT_INFO": "s⁻¹",
    "koff": 0.002
  },
  {
    "BINDER": "humanized C90 variant HC3 + LC2 (antibody, V domains shown, also called Humanized HC3 + LC2; Hu90 HC-3 with Hu90 LC-2) VH: EVQLQESGPGLVKPSETLSLTCSVSGDSITSGYWNWIRQPPGKGLEYIGYISYSGSTYYNPSLKSRVTISRDTSKNQYSLRLSSVTAADTALYYCASPNYPFYAMDYWGQGTRVTVSS VL: DIVLTQSPATLSLSPGERATLSCRASESVDNYGISFMNWFQQKPGQAPRLLIYAASNRATGIPARFSGSGSGTDFTLTISSLEPEDFAVYYCQQSKEVPWTFGGGTKVEIKR",
    "UNIT_INFO": "s⁻¹",
    "koff": 0.0037
  }
]
